Provide the reported TGI of each item.
Tested on: MCF7 breast
Experiment: NCI tumour cell line growth inhibition, 48 h
Where a SMILES comes first, the peptide text is derived from it. Bridges are numbered along the chain shown (N, C = ends). [ ]: non-standard residue; d: D form. The star is where a group is joined. Bn2Val = CC(C)[C@@H](C(=O)*)N(Cc1ccccc1)Cc1ccccc1; Fmoc = O=C(OCC1c2ccccc2-c2ccccc21)*; NH(4-F-benzyl) = Fc1ccc(CN*)cc1; Cya = N[CH](CS(=O)(=O)O)C(=O)O; X49 = CC(C)CCCCCCCC(O)CC(=O)*; NMeV = CN[C@H](C(=O)O)C(C)C; dNMeA = CN[C@H](C)C(=O)O; Boc = CC(C)(C)OC(=O)*; GABA = NCCCC(=O)O; OtBu = CC(C)(C)O*

Q: Let me know recorded TGI for "Clc1ccc(Cl)c(NNc2cc(Cl)ccc2Cl)c1" , thanks.
A: > 10 µM

Q: Quickly give me recorded TGI for "Cc1cc(CN2CCCCC2)c(O)c(CN2CCCCC2)c1"
A: > 100 µM

Q: Check the records and state TGI for COc1ccc2c(c1)SC1=NNC(Cl)C(=O)N12 (stereo not drawn)
A: > 100 µM

Q: Consider the compound C#Cc1nc(N)c2ncn(C3OC(COS(N)(=O)=O)C(O)C3O)c2n1 (stereo not drawn) and give its recorded TGI.
A: > 100 µM

Q: Write down TGI measured for item CC(C)(C)OC(=O)CCC(NC(=O)OCC1c2ccccc2-c2ccccc21)C(=O)NC(Cc1c[nH]c2ccccc12)C(=O)NC(CCCCNC(=O)OC(C)(C)C)C(=O)N1CCCC1C(=O)NCC(N)=O (stereo not drawn) (Fmoc-E(OtBu)WK(Boc)PG-NH2; configuration not given here)
A: > 100 µM

Q: Fill in reported TGI for this entry: COc1ccc(C2C(C#N)=C(N)Oc3c2sc2c(C)cccc32)cc1 (stereo not drawn)
A: 12.2 µM

Q: Please give measured TGI of the following entry: "Cc1cc2c(cc1C)[n+]([O-])c(NCCCN(C)C)c(C#N)[n+]2[O-]"
A: > 100 µM

Q: For the compound "C[C@]12CC[C@@H]3c4ccc(O)cc4CC[C@H]3[C@@H]1CC[C@@H]2NS(=O)(=O)c1cccc(OC(F)(F)F)c1" , give its measured TGI value.
A: 3.36 µM

Q: Look up TGI of "COC(=O)c1ccc2[nH]c(O)c(C(=Nc3ccc(N(C)C(=O)CN4CCN(C)CC4)cc3)c3ccc(OC)cc3)c2c1" and report it.
A: 2.49 µM

Q: Provide only the value of recorded TGI for "N#Cc1c(O)c(C=Nc2ccc(Cl)cc2)c(=O)n2c1[nH]c1ccccc12"
A: > 100 µM

Q: Please report the measured TGI for COc1ccc(C(O)c2cc3c(N)c(C(=O)Nc4ccc(Br)cc4)sc3nc2C)cc1 (stereo not drawn)
A: 15.2 µM

Q: Indicate its recorded TGI; the compound in question is NC(C(=O)O)c1cc(=O)[nH]o1 (stereo not drawn)
A: > 100 µM

Q: Determine its reported TGI: O=S(CCc1ccccc1)Nc1ccccc1 (stereo not drawn)
A: > 100 µM

Q: Return TGI for the following compound: "Cc1c2ccccc2c(C)n2c1nc1cc3ccccc3cc12"
A: 1.6 µM

Q: Look up and report measured TGI for this entry: "Cc1ccc2c(c1)c(C1=C(c3cn(C)c4ccccc34)C(=O)NC1=O)cn2C"
A: > 16.3 µM

Q: Could you please provide reported TGI for "COc1ccc(/C=C/C(=O)c2ccc(NC(=O)CSc3nnc(-c4ccc(OC)c(OC)c4)n3-c3ccccc3)cc2)cc1" ? Thanks!
A: 5.14 µM

Q: Give the value of TGI reported for the following: "CC1=NN(C2=NS(=O)(=O)c3ccccc3N2C)C(=O)C1"
A: > 100 µM

Q: Quick one: give measured TGI for C/C=C1/C[C@@H](C)[C@@](C)(O)C(=O)OCC2=CC[N+]3([O-])CC[C@@H](OC1=O)[C@@H]23 (stereo partly drawn)
A: > 100 µM

Q: Give the value of TGI reported for the following: O=C(OC1C=C=CS(=O)(=O)CC#C/C=C\1)c1cnc2ccccc2n1 (stereo not drawn)
A: > 100 µM

Q: Provide only the value of recorded TGI for CC(C1CCCC1=O)C1CCCC1=O (stereo not drawn)
A: > 100 µM

Q: Report measured TGI; entry is "CCOC(=O)NN(C(=O)OCC)C(=C(c1ccccc1)N1CCOCC1)N(NC(=O)OCC)C(=O)OCC"
A: > 100 µM

Q: Complete the entry with TGI for "CN(C)CCCNc1c2c(nc3ccc(Cl)cc13)CCCC2"
A: 25.5 µM

Q: Quick one: give measured TGI for CC(C)CCCCCCCC(O)CC(=O)NC(CS(=O)(=O)O)C(=O)NC(CC(C)C)C(=O)NCCCC(=O)NC(Cc1cnc[nH]1)C(=O)NC(C)C(=O)NC1C(=O)NC(C(C)O)C(=O)NC(Cc2cnc[nH]2)C(=O)NC(C)C(=O)NC(C(C)O)C(=O)OC1C (stereo not drawn) (X49-[Cya]L[GABA]HATTHAT; ester 6-C; configuration not given here)
A: > 25 µM

Q: Give the value of TGI reported for the following: COc1cc(/C=C2/SC(c3ccccc3)N(c3cc(Cl)ccc3Cl)C2=O)cc(OC)c1OC (stereo not drawn)
A: > 100 µM

Q: Dear colleague, please send me the reported TGI for CC(=O)OC1(C)C(=O)OC/C2=C/CN(C)CCC(OC(=O)C(O)(C(C)Cl)CC1C)C2=O (stereo not drawn) when you can.
A: > 100 µM

Q: Fill in TGI for record "C=CC(=O)N1CC2(CCC(n3nc(-c4ccc(Oc5ccccc5)cc4)c4c(N)ncnc43)CC2)C1"
A: 11.4 µM

Q: Let me know recorded TGI for "C/C(=N/NC(=S)N1CCCCC1)c1cccc(/C(C)=N\NC(=S)N2CCCCC2)n1" , thanks.
A: 4.46 µM

Q: Tell me measured TGI for CC(C)[C@H](NC(=O)[C@H](C(C)C)N(Cc1ccccc1)Cc1ccccc1)C(=O)N(C)[C@H](C(=O)N1CCC[C@H]1C(=O)N(C)[C@H](C)C(=O)NCc1ccc(F)cc1)C(C)C (Bn2Val-V[NMeV]P[dNMeA]-{NH(4-F-benzyl)}) please.
A: 7.32 µM

Q: Tell me TGI reported for "O=C1C[C@@H](c2ccc(O)cc2)[C@@]2(O1)C(=O)O[C@H]([C@@H](O)CO)[C@@H]2O"
A: > 100 µM

Q: For the compound CC(C)C(O)(C(=O)OCN1C(=O)C2C3C=CC(C2C1=O)C1C2C(=O)N(COC(=O)C(O)(C(C)C)C(C)O)C(=O)C2C31)C(C)O (stereo not drawn) , give its reported TGI.
A: > 100 µM

Q: Output measured TGI for this item: "CC(=O)O[C@H]1C(=O)[C@@]2(C)[C@H]([C@H](OC(=O)c3ccccc3)[C@]3(O)C[C@H](OC(=O)[C@H](OC(=O)OC[C@@H]4COC(C)(C)O4)[C@@H](NC(=O)c4ccccc4)c4ccccc4)C(C)=C1C3(C)C)[C@]1(OC(C)=O)CO[C@@H]1C[C@@H]2O"
A: > 33.3 µM

Q: In one line, give reported TGI of the entry "CCCCCC(=O)n1[nH]c(=O)n(-c2ccc(OC)cc2)c1=O" .
A: > 100 µM

Q: Supply TGI value. Item: "Cn1c(N)c(Cc2ccc(Cl)cc2)c(=O)[nH]c1=O"
A: > 100 µM
